TESTED_SYSTEM: UniProt:P49674
Sequence (P49674 whole entry): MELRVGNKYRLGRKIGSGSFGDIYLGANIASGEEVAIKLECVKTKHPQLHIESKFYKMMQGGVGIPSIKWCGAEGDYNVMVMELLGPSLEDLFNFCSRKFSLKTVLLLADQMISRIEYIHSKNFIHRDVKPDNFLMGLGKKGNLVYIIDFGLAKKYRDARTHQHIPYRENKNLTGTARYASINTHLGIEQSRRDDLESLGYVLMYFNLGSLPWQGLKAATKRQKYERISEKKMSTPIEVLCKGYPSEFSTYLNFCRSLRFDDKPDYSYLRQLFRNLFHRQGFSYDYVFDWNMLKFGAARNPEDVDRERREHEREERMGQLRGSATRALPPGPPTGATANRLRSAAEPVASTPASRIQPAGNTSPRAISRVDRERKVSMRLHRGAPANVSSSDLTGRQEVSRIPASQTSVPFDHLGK
PROCEDURE_SUMMARY: CK1ε inhibition IC50
Format: biochemical
STUDY_CONDITIONS: Table 3; read-out: CK1 e IC50
TEST_READOUT: IC50 (nM)

P: Cn1cc(-c2ccnc3c2C(=O)N(C2CCOCC2)C3)c(-c2ccc(F)cc2)n1
Q: CC1(C)CN(c2ccc3nc(-c4ccc(F)cc4)c(-c4ccncc4)n3n2)CCN1
R: Nc1nccc(-c2c(-c3ccc(F)cc3)ncn2C2CCN(Cc3ccon3)CC2)n1 [PF-5006739, reference compound]
Exam item: // ascending sort on recorded IC50 The response must list the labels following the requested ordering.
Marked response: Q, R, P
(Q: 12.4 nM, R: 26.8 nM, P: 72.4 nM)
